Test system: Zymoseptoria tritici
Assay: Leaf blotch of wheat (SEPTTR), disease control on wheat seedlings
Assay type: in vivo
Conditions: 24 h, high volume application at 100 ppm, 1 Day Protectant, read-out: SEPTTR disease control, 1DP, HV activity
Method: Technical grades of materials were dissolved in acetone, which were then mixed with nine volumes of water containing 110 ppm Triton X-100. The fungicide solutions were applied onto wheat seedlings using an automated booth sprayer to run-off. […] All fungicides were evaluated using the aforementioned method for their activity vs. all target diseases, unless stated otherwise. […] Percent disease control was calculated using the ratio of disease severity on treated plants relative to untreated plants.
Measurement kind: pest or weed control at 100 ppm

Compound: CCC(CC)[C@@H](c1ccc(F)cc1OC)[C@H](C)OC(=O)[C@H](C)NC(=O)c1nccc(OC)c1O [Compound 145]
pest or weed control at 100 ppm: < 80%
//
Compound: COc1ccnc(C(=S)N[C@@H](C)C(=O)O[C@@H](C)[C@@H](c2ccccc2)C2CCCC2)c1O [Compound 115]
pest or weed control at 100 ppm: < 80%
//
Compound: COc1ccnc(C(=O)N[C@@H](C)C(=O)O[C@@H](C)[C@H](c2ccc(F)cc2C)C2CCCCC2)c1O [Compound 123]
pest or weed control at 100 ppm: > 80%

[ask] Test system Zymoseptoria tritici; read-out pest or weed control at 100 ppm; what value for COc1ccnc(C(=O)N[C@@H](C)C(=O)O[C@@H](C)[C@H](c2ccc(F)cc2)C(C)C)c1O [Compound 135] ?
[reply] < 80%

[ask] For COc1ccnc(C(=O)N[C@@H](C)C(=O)O[C@@H](C)[C@@H](c2ccc(F)cc2C)C2CCCC2)c1O [Compound 118] then?
[reply] < 80%

[ask] For COc1ccnc(C(=O)N[C@@H](C)C(=O)O[C@@H](C)[C@H](c2ccccc2F)C(C)C)c1O [Compound 323] then?
[reply] < 80%

[ask] For COc1ccnc(C(=O)N[C@@H](C)C(=O)OC(C)[C@H](c2ccccc2)C2CCCC2)c1O (stereo partly shown) [Compound 113] then?
[reply] > 80%
